ASSAY_SYSTEM: Caspase-7 (Homo sapiens)
Sequence (P55210 whole entry): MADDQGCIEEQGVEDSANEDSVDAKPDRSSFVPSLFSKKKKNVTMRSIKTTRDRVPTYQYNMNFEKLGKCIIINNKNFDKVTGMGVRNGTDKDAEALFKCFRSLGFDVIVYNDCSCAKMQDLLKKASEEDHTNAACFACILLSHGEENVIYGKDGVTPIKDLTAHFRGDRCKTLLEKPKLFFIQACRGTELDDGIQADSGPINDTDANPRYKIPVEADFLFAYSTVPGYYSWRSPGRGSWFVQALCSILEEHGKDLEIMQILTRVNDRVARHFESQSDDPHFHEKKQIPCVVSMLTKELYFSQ
pIC50: −log10 of the molar value.
Items are presented alongside their recorded pIC50.
QUANTITY: pIC50

{"columns": ["MOLECULAR_STRING", "QUANTITY", "RESULT_NUMBER"],
 "data": [
  ["CC(C)(C)[Si](C)(C)Oc1ccc(CN2C(=O)C(=O)c3cc(S(=O)(=O)N4CCC[C@H]4COc4ccccc4)ccc32)cc1", "pIC50", 6.44],
  ["COC[C@@H]1CCCN1S(=O)(=O)c1ccc2c(c1)C(=O)C(=O)N2Cc1ccc(OCCBr)cc1", "pIC50", 7.59],
  ["COC[C@@H]1CCCN1S(=O)(=O)c1ccc2c(c1)C(=O)C(=O)N2", "pIC50", 5.89],
  ["O=C1C(=O)N(Cc2ccc(O)cc2)c2ccc(S(=O)(=O)N3CCC[C@H]3COc3ccccc3)cc21", "pIC50", 7.28],
  ["COC[C@@H]1CCCN1S(=O)(=O)c1ccc2c(c1)C(=O)C(=O)N2C", "pIC50", 6.52],
  ["COC[C@@H]1CCCN1S(=O)(=O)c1ccc2c(c1)C(=O)C(=O)N2Cc1ccc(O[Si](C)(C)C(C)(C)C)cc1", "pIC50", 7.16],
  ["COC[C@@H]1CCCN1S(=O)(=O)c1ccc2c(c1)C(=O)C(=O)N2Cc1ccc(OCCF)cc1", "pIC50", 7.03]
]}

----------
A set of molecules tested on Caspase-1 (Homo sapiens, UniProt P29466), with measured IC50:
QUANTITY: IC50

{"columns": ["MOLECULAR_STRING", "QUANTITY", "RESULT"],
 "data": [
  ["O=C1C(=O)N(Cc2ccc(I)cc2)c2ccc(S(=O)(=O)N3CCC[C@H]3COc3ccccc3)cc21", "IC50", "> 500 µM"],
  ["O=C1C(=O)N(Cc2ccc(O)cc2)c2ccc(S(=O)(=O)N3CCC[C@H]3COc3ccccc3)cc21", "IC50", "> 25 µM"],
  ["COC[C@@H]1CCCN1S(=O)(=O)c1ccc2c(c1)C(=O)C(=O)N2Cc1ccc(OCCBr)cc1", "IC50", "> 15 µM"],
  ["COC[C@@H]1CCCN1S(=O)(=O)c1ccc2c(c1)C(=O)C(=O)N2Cc1ccc(O)cc1", "IC50", "> 60 µM"],
  ["CC(C)(C)[Si](C)(C)Oc1ccc(CN2C(=O)C(=O)c3cc(S(=O)(=O)N4CCC[C@H]4COc4ccccc4)ccc32)cc1", "IC50", "> 500 µM"],
  ["COC[C@@H]1CCCN1S(=O)(=O)c1ccc2c(c1)C(=O)C(=O)N2Cc1ccc(O[Si](C)(C)C(C)(C)C)cc1", "IC50", "> 7 µM"],
  ["CN1C(=O)C(=O)c2cc(S(=O)(=O)N3CCC[C@H]3COc3ccccc3)ccc21", "IC50", "> 500 µM"]
]}

----------
ASSAY_SYSTEM: UniProt P42574
Sequence (P42574 whole entry): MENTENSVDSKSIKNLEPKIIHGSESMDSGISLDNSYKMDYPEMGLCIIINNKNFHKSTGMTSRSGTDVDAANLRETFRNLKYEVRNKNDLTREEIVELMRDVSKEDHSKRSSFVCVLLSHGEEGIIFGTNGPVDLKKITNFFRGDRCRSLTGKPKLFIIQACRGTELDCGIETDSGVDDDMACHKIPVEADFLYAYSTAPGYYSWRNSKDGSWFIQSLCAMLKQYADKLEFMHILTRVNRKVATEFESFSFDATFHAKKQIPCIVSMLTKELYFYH
METHOD: Inhibition of caspase 3
Lab note: anything with IC50 below 20 nM is marked TRUE; values at 20 nM or higher are marked FALSE.

{"columns": ["MOLECULAR_STRING", "ASSAY_SYSTEM", "LABEL_VALUE"],
 "data": [
  ["O=C1C(=O)N(Cc2ccc(O)cc2)c2ccc(S(=O)(=O)N3CCC[C@H]3COc3ccccc3)cc21", "UniProt P42574", "TRUE"],
  ["COC[C@@H]1CCCN1S(=O)(=O)c1ccc2c(c1)C(=O)C(=O)N2C", "UniProt P42574", "TRUE"],
  ["COC[C@@H]1CCCN1S(=O)(=O)c1ccc2c(c1)C(=O)C(=O)N2Cc1ccc(OC)cc1", "UniProt P42574", "TRUE"],
  ["COC[C@@H]1CCCN1S(=O)(=O)c1ccc2c(c1)C(=O)C(=O)N2Cc1ccc(I)cc1", "UniProt P42574", "TRUE"],
  ["COC[C@@H]1CCCN1S(=O)(=O)c1ccc2c(c1)C(=O)C(=O)N2Cc1ccc(OCCOS(=O)(=O)c2ccc(C)cc2)cc1", "UniProt P42574", "TRUE"],
  ["COC[C@@H]1CCCN1S(=O)(=O)c1ccc2c(c1)C(=O)C(=O)N2Cc1ccc(O[Si](C)(C)C(C)(C)C)cc1", "UniProt P42574", "TRUE"],
  ["COC[C@@H]1CCCN1S(=O)(=O)c1ccc2c(c1)C(=O)C(=O)N2Cc1ccc(OCCF)cc1", "UniProt P42574", "FALSE"],
  ["Cc1ccc(S(=O)(=O)OCCOc2ccc(CN3C(=O)C(=O)c4cc(S(=O)(=O)N5CCC[C@H]5COc5ccccc5)ccc43)cc2)cc1", "UniProt P42574", "TRUE"],
  ["COC[C@@H]1CCCN1S(=O)(=O)c1ccc2c(c1)C(=O)C(=O)N2Cc1ccc(OCCBr)cc1", "UniProt P42574", "TRUE"],
  ["O=C1C(=O)N(Cc2ccc(OCCF)cc2)c2ccc(S(=O)(=O)N3CCC[C@H]3COc3ccccc3)cc21", "UniProt P42574", "TRUE"],
  ["CN1C(=O)C(=O)c2cc(S(=O)(=O)N3CCC[C@H]3COc3ccccc3)ccc21", "UniProt P42574", "FALSE"],
  ["O=C1Nc2ccc(S(=O)(=O)N3CCC[C@H]3COc3ccccc3)cc2C1=O", "UniProt P42574", "TRUE"],
  ["O=C1C(=O)N(Cc2ccc(OCCBr)cc2)c2ccc(S(=O)(=O)N3CCC[C@H]3COc3ccccc3)cc21", "UniProt P42574", "FALSE"],
  ["COC[C@@H]1CCCN1S(=O)(=O)c1ccc2c(c1)C(=O)C(=O)N2Cc1ccc(O)cc1", "UniProt P42574", "FALSE"],
  ["COc1ccc(CN2C(=O)C(=O)c3cc(S(=O)(=O)N4CCC[C@H]4COc4ccccc4)ccc32)cc1", "UniProt P42574", "TRUE"],
  ["COC[C@@H]1CCCN1S(=O)(=O)c1ccc2c(c1)C(=O)C(=O)N2", "UniProt P42574", "FALSE"]
]}

----------
ASSAY_SYSTEM: Caspase-3 (Homo sapiens, UniProt P42574)
METHOD: Inhibition of caspase 3 in neutrophils
QUANTITY: IC50 (µM)

{"columns": ["MOLECULAR_STRING", "RESULT_NUMBER"],
 "data": [
  ["CN1C(=O)C(=O)c2cc(S(=O)(=O)N3CCC[C@H]3COc3ccccc3)ccc21", 10]
]}

----------
ASSAY_SYSTEM: Caspase-6 (Homo sapiens, UniProt P55212)
Sequence (P55212 whole entry): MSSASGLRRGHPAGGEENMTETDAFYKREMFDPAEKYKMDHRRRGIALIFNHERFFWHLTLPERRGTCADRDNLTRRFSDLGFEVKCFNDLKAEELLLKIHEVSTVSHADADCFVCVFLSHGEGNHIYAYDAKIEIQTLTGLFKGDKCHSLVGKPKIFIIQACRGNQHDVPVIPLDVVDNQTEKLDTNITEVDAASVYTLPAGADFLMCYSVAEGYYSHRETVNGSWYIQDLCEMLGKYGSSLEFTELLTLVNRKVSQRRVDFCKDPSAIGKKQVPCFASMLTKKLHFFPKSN
QUANTITY: IC50

{"columns": ["MOLECULAR_STRING", "QUANTITY", "RESULT"],
 "data": [
  ["CC(C)(C)[Si](C)(C)Oc1ccc(CN2C(=O)C(=O)c3cc(S(=O)(=O)N4CCC[C@H]4COc4ccccc4)ccc32)cc1", "IC50", "> 500 µM"],
  ["COC[C@@H]1CCCN1S(=O)(=O)c1ccc2c(c1)C(=O)C(=O)N2Cc1ccc(O[Si](C)(C)C(C)(C)C)cc1", "IC50", "> 500 µM"],
  ["O=C1C(=O)N(Cc2ccc(OCCBr)cc2)c2ccc(S(=O)(=O)N3CCC[C@H]3COc3ccccc3)cc21", "IC50", "> 500 µM"]
]}
